# Tested on: MDA-MB-435
# testDescription: NCI tumour cell line growth inhibition, 48 h
Active and inactive are the calls of the source. No stated cut-off is given here; in the data, active = GI50 up to about 1.1 µM and inactive = higher.
Measured GI50, listed per entry for reference.

molecule	result
C=C1C(=O)O[C@H]2C(=O)[C@H](C)CCC/C(C)=C/CC[C@@]3(C)O[C@@H]3C[C@@H]12	1.98 µM (inactive)

Turning now to a further molecule:
Query: Could you share what GI50 was measured for `N=c1oc2ccccc2cc1-c1nc2ccccc2[nH]1` , tested on MDA-MB-435?
Result: 15.5 µM (inactive)

###

# Tested on: OVCAR-4
# testDescription: NCI tumour cell line growth inhibition, 48 h
Active and inactive are the calls of the source. Cut-off read from the data, not from the text of the source: active = GI50 up to about 1.1 µM and inactive = higher.
// one of active, inactive, no free text

Query: Any idea what this test logged for CC12CCC(C(=O)O1)C(C)(C)O2 (configuration not stated) ?
Result: inactive

Query: Any idea what this test logged for `CCCCCOC(=O)C(=O)Nc1[nH]nnc1C(N)=O` ?
Result: inactive

All figures here come from ChEMBL document CHEMBL1201862.
